MIC values, listed per item
Tested on: Escherichia coli
method: Antimicrobial activity against Escherichia coli ATCC 25922 after 18-24 hrs by two-fold serial dilution method
Assay type: functional
# output: bare number, implied unit µg/mL

See these solved cases before continuing.
{"columns": ["compound", "tested.target", "MIC / µg/mL"],
 "data": [
  ["CO/N=C1\\CN(c2nc3c(cc2F)c(=O)c(C(=O)O)cn3C2CC2)CC1CN (centres undefined)", "Escherichia coli", 0.03],
  ["COc1ccc(CO/N=C2\\CN(c3nc4c(cc3F)c(=O)c(C(=O)O)cn4C3CC3)CC2CN)cc1OC.CS(=O)(=O)O (racemic)", "Escherichia coli", 0.06],
  ["CS(=O)(=O)O.NCC1CN(c2nc3c(cc2F)c(=O)c(C(=O)O)cn3C2CC2)C/C1=N\\OCc1ccc2c(c1)OCCO2 (racemic)", "Escherichia coli", 0.25]
]}

Please examine the following record next.
## Task Name the value of MIC reported for COc1ccc(OC)c(CO/N=C2\CN(c3nc4c(cc3F)c(=O)c(C(=O)O)cn4C3CC3)CC2CN)c1.CS(=O)(=O)O (racemic) when tested on Escherichia coli.
## Result 0.06
